Biological target: GRF receptors ([^125 I-Tyr^10 ]hGRF(1-44)NH2 binding sites in rat adenopituitary) (Rattus norvegicus, UniProt Q02644)
Construct: from tissue; host or cells: rat anterior pituitary homogenate
Sequence (Q02644 23-423 isoform Q02644-2 limits assumed): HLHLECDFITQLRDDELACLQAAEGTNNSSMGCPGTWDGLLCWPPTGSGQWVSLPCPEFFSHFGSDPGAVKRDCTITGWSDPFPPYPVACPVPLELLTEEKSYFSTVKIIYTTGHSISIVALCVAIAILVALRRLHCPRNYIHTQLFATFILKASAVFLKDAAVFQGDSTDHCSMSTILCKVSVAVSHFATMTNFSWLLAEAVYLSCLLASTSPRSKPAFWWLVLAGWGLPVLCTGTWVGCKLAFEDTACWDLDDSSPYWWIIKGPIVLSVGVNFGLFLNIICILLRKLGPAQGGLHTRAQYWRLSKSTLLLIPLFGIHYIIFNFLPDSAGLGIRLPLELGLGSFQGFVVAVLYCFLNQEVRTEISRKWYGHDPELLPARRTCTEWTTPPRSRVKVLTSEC
Assay: Competitive binding assay with [^125 I-Tyr^10 ]hGRF(1-44)NH2 on anterior pituitary homogenates
Conditions: Table 11; mean±SD of 2 or mean±SE of 3 experiments for analogues, mean±SE of 11 for hGRF(1-29)NH2
pIC50: −log10 of the molar value. Ends that are not written are not given here.
READOUT_NAME: pIC50

[[record]]
substance = "YADAIFTASYRKVLAQLSARKALQDIMSR-NH2 [Ala^8, Ala^15, Ala^22]"
measured_result = 9.60

[[record]]
substance = "YADAIFTNSYRKVLGQLSARKKLQDIMSR-NH2 [Lys^22]"
measured_result = 9.64

[[record]]
substance = "YADAIFTAAYRKVLAQLSARKALQDIMSR-NH2 [Ala^8, Ala^9, Ala^15, Ala^22]"
measured_result = 9.51

